Just for reference, patent US8080555B2 is where these values come from.

Target: Fc portion of human IgG
Construct: fused on or other part: Horseradish peroxidase chemically conjugated to the IgG (detection label)
Assay: Competitive protein A binding ELISA (inhibition of binding of protein A to human IgG)
Conditions: HRP-human IgG, assay in PBS, read-out: IC50 (μM) Assay in PBS, concentration which inhibits 50% binding of protein A
The following compounds are shown together with reported IC50 values.
Reply numerically in µM, unit not repeated.

Record excerpt, results attached:
CC(C)CNc1nc(Nc2cccc(N)c2)c2ncn(CCc3ccc(N)cc3)c2n1 [Compound 11] | 22
Nc1ccc(CCn2cnc3c(Nc4cccc(N)c4)nc(NC4CC4)nc32)cc1 [Compound 5] | 13
Nc1ccc(CCn2cnc3c(Nc4cccc(N)c4)nc(NC4CCCC4)nc32)cc1 [Compound 13] | 0.2

// map Nc1ccc(CCn2cnc3c(Nc4cccc(N)c4)nc(NCCCCCCO)nc32)cc1 [Compound 4] to recorded IC50 (system: Fc portion of human IgG) 4.8
